- system name: Progesterone PR-B receptors from human breast carcinoma T47D cells (Homo sapiens, UniProt P06401)
- Sequence (P06401 1-933): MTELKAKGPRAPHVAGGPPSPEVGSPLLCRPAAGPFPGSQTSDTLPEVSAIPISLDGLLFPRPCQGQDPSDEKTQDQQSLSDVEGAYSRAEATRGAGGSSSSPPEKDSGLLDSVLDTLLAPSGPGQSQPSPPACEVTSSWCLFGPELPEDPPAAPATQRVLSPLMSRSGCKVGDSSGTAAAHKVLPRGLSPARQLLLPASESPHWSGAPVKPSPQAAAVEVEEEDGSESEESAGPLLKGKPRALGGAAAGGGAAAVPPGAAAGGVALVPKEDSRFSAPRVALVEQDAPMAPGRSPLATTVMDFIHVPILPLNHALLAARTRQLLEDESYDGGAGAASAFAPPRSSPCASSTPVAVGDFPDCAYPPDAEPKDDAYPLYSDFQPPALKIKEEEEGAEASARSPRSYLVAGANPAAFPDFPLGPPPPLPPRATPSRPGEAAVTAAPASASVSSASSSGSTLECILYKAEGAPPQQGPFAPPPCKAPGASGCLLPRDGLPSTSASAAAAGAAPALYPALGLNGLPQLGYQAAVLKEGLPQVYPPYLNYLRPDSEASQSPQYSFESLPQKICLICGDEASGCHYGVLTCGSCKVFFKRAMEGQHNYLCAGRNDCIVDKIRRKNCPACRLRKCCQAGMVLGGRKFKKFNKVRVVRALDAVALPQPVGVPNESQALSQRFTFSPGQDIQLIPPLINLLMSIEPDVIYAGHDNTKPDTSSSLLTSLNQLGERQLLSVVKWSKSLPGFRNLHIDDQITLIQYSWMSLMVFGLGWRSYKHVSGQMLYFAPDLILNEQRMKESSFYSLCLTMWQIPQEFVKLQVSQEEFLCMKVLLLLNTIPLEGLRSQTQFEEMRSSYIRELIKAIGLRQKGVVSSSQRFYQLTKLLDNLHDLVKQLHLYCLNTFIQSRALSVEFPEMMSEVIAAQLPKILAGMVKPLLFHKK
- method: PR binding assay ([3H] Progesterone displacement)
pIC50: −log10 of the molar value.
Catalogue of compounds with associated pIC50

Query :: // lookup pIC50 for CC[C@@]1(O)C(=O)OCc2c1cc1n(c2=O)Cc2c-1nc1cc(F)c(C)c3c1c2[C@@H](NC(=O)COC(=O)N1CCN(CCCCCCN(C)c2ccc([C@H]4C[C@@]5(C)[C@@H](CC[C@]5(OC(C)=O)C(C)=O)[C@@H]5CCC6=CC(=O)CCC6=C54)cc2)CC1)CC3
Result :: > 8.00

Query :: What about this compound? CC[C@@]1(O)C(=O)OCc2c1cc1n(c2=O)Cc2cc3c(CN(C)C)c(OC(=O)N4CCN(C(=O)[C@H](CCCNC(N)=O)NC(=O)[C@@H](NCCCCCCN(C)c5ccc([C@H]6C[C@@]7(C)[C@@H](CC[C@]7(OC(C)=O)C(C)=O)[C@@H]7CCC8=CC(=O)CCC8=C76)cc5)C(C)C)CC4)ccc3nc2-1
Result :: > 8.00

* * *

- system name: AR (cytosol from LnCaP cells) (Homo sapiens, UniProt P10275, T878A)
- Sequence (P10275 whole entry T878A): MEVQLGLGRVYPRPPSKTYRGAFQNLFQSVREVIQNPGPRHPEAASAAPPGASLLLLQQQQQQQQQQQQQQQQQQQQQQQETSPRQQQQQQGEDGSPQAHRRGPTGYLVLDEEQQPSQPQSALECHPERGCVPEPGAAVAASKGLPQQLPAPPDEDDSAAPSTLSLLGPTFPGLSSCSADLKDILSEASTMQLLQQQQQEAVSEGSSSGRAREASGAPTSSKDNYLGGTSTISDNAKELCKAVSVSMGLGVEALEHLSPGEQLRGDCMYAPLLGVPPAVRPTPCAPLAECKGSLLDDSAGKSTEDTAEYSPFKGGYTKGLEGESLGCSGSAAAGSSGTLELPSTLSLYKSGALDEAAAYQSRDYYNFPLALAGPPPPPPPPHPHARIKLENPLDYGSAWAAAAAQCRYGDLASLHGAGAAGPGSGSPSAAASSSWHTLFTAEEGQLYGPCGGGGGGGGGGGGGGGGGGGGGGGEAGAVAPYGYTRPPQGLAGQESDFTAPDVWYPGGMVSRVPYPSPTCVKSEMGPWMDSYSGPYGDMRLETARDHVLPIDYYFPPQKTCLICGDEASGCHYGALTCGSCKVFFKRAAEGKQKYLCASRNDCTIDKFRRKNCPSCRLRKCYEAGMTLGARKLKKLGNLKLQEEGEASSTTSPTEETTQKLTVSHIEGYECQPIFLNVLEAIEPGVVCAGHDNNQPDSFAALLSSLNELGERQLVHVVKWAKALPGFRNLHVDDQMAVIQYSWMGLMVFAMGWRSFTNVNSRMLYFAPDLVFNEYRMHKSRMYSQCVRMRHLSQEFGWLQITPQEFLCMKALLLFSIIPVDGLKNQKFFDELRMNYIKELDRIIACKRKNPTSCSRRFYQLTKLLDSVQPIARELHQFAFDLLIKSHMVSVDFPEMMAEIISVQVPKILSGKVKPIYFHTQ
- method: AR binding assay (3H-R1881 displacement)
measured property: IC50

Check out these entries, answers already filled in.
CC[C@@]1(O)C(=O)OCc2c1cc1n(c2=O)Cc2cc3c(CN4CCN(CC5CCN(c6ccc(N7C(=S)N(c8ccc(C#N)c(Cl)c8)C(=O)C7(C)C)cc6)CC5)CC4)c(O)ccc3nc2-1 10 to 100 nM
CC[C@@]1(O)C(=O)OCc2c1cc1n(c2=O)Cc2cc3c(CN4CCN(CC5CCN(c6ccc(C(=O)N[C@H]7CC[C@H](Oc8ccc(C#N)c(Cl)c8C)CC7)nn6)CC5)CC4)c(O)ccc3nc2-1 < 10 nM
CC[C@@]1(O)C(=O)OCc2c1cc1n(c2=O)Cc2cc3c(CN(C)C)c(OC(=O)N4CCN(CCCCCCCCN(C)c5ccc([C@H]6C[C@@]7(C)[C@@H](CC[C@]7(OC(C)=O)C(C)=O)[C@@H]7CCC8=CC(=O)CCC8=C76)cc5)CC4)ccc3nc2-1 10 to 100 nM

Query :: // lookup IC50 for CC[C@@]1(O)C(=O)OCc2c1cc1n(c2=O)Cc2cc3c(CN4CCN(C(=O)C5CCN(c6ccc(C(=O)N[C@H]7CC[C@H](Oc8ccc(C#N)c(Cl)c8)CC7)nn6)CC5)CC4)c(OC(=O)N(C)c4ccccc4)ccc3nc2-1
Result :: 101 to 1000 nM

Sourced from patent US20260102501A1
